Biological target: human recombinant GABAAR containing α5β3γ2 subunits (benzodiazepine site) (Homo sapiens, UniProt P18507+P31644)
Construct: expressed in transfected cells; host or cells: mouse L(tk−) cells, dexamethasone-inducible vector pMSGneo
Assay: In vitro radioligand binding assay (α5-GABAAR Ki)
Assay metric: Ki

Item smiles: COc1cc2c(-c3ccc(NC(=O)c4c(-c5ccccc5)noc4C)c(OC)n3)cn(C)c2cn1
Reading: 47.2 nM

* * *

Molecular target: human α5β3γ2 GABAARs in mouse L(tk−) cells (Homo sapiens, UniProt P18507+P31644)
Construct: expressed in transfected cells; host or cells: mouse L(tk−) cells, dexamethasone-inducible vector pMSGneo
Sequence (P31644 32-462): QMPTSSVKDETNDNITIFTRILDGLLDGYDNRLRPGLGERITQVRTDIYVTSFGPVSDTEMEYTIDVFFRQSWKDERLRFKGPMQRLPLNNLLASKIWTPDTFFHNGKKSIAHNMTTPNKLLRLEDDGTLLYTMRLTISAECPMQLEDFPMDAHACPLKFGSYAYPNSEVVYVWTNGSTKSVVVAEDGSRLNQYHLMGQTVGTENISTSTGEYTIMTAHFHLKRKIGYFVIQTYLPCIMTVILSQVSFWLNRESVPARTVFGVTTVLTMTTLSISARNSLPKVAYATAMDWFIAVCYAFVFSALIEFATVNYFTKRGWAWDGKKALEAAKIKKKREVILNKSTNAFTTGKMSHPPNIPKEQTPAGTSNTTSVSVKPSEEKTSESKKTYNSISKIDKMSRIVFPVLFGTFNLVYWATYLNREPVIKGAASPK
Sequence (P28472 26-473 partner): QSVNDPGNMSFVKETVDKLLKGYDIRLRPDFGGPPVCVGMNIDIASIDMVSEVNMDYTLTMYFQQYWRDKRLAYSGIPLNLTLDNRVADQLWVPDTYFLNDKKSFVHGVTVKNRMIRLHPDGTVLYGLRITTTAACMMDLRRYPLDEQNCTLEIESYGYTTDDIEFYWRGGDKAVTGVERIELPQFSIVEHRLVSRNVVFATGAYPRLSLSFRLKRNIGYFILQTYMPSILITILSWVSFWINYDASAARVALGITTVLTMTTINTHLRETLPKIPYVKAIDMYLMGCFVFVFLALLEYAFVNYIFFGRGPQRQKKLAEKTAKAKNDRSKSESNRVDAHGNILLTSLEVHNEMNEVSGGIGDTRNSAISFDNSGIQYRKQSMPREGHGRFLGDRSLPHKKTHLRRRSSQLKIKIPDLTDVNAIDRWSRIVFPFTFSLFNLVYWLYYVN
Sequence (P18507 40-475): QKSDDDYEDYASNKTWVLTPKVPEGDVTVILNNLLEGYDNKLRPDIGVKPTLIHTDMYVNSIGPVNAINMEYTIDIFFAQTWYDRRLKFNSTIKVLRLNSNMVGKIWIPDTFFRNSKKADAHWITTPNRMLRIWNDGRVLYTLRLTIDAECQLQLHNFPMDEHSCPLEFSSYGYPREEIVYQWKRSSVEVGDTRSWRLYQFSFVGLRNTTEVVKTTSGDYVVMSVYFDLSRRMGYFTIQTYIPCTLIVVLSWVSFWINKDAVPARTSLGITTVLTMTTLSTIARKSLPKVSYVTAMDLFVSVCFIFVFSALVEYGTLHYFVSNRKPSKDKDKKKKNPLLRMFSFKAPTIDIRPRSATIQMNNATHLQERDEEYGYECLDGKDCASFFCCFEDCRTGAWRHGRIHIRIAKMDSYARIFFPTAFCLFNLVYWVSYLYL
Test: In vitro electrophysiological recording assay (α5-GABAAR relative efficacy), QPatch
Type: cell-based
Conditions: Conc 0.3 μM; GABA EC10-20
Assay metric: α5-GABAAR Relative Efficacy (to DMCM), Qpatch

Compound: COc1nc(-c2ccnnc2)ccc1NC(=O)c1c(-c2ccccc2)noc1C [Example 104]
Reading: −0.68

Compound: COc1nc(-c2cnc(CN)nc2)ccc1NC(=O)c1c(-c2ccccc2)noc1C.Cl [Example 126]
Reading: −0.68

Compound: COc1nc(-c2cnc3cnccn23)ccc1NC(=O)c1c(-c2ccccc2)noc1C [Example 135]
Reading: −0.85

Compound: COc1nc(-n2cnc(C#N)c2)ccc1NC(=O)c1c(-c2ccccc2)noc1C [Example 139]
Reading: −0.90

Compound: COc1nc(-n2ccnc2)ccc1NC(=O)c1c(-c2ccc(F)cc2)noc1C [Example 141]
Reading: −0.93

Compound: CCOc1ncc(-c2cnc(NC(=O)c3c(-c4ccccc4)noc3C)c(OC)n2)cn1 [Example 142]
Reading: −0.85

Compound: COc1ccc(-c2cnc(NC(=O)c3c(-c4ccccc4)noc3C)c(OC)n2)cn1 [Example 71]
Reading: −0.94

Compound: COc1nc(-c2cnc(CN(C)C)nc2)cnc1NC(=O)c1c(-c2ccccc2)noc1C [Example 144]
Reading: −0.95

Compound: COc1nc(-c2ccn3nc(N)nc3c2)ccc1NC(=O)c1c(-c2ccccc2)noc1C.Cl [Example 61]
Reading: −0.85

Compound: COc1nc(-c2ccc(CN)nc2)ccc1NC(=O)c1c(-c2ccccc2)noc1C.Cl [Example 199]
Reading: −0.82

Compound: COCc1ncc(-c2ccc(NC(=O)c3c(-c4ccccc4)noc3C)c(OC)n2)cn1 [Example 125]
Reading: −0.84

Compound: COc1nc(-c2ncc[nH]2)ccc1NC(=O)c1c(-c2ccccc2)noc1C [Example 121]
Reading: −0.36

Compound: COc1nc(-c2cnc(C(=O)N(C)C)nc2)ccc1NC(=O)c1c(-c2ccccc2)noc1C [Example 130]
Reading: −0.55

* * *

Molecular target: human recombinant GABAAR containing α5β3γ2 subunits (benzodiazepine site) (Homo sapiens, UniProt P18507+P31644)
Construct: expressed in transfected cells; host or cells: mouse L(tk−) cells, dexamethasone-inducible vector pMSGneo
Test: In vitro radioligand binding assay (α5-GABAAR Ki)
Conditions: inhibition of [3H]Ro15-1788 binding, membranes of L(tk−) cells expressing human α5β3γ2; read-out: α5-GABAAR Ki
Excerpt: Mouse L(tk^−) cells stably expressing human α1β3γ2, α2β3γ2, α3β3γ2, α5β3γ2 GABAARs generated by transfection of the individual subunits in the dexamethasone-inducible expression vector pMSGneo in mouse L(tk^−) cells (Hadingham et al., 1993, Mol. Pharmacol. 43:970-975 and 1993, Mol. Pharmacol. 44:1211-1218) were used for binding and functional assays. […] The % inhibition of [^3H] Ro15-1788 binding was plotted as a function of compound concentration and the IC50 calculated. […]
pKi: −log10 of the molar value.
TRUE means recorded pKi is 8 or above; FALSE means it is below 8.

Compound: COc1nc(-c2cn(-c3nccs3)nc2C)ccc1NC(=O)c1c(-c2ccccc2)noc1C [Example 115]
Group label: FALSE
//
Compound: COc1nc(-c2cnn3cccnc23)ccc1NC(=O)c1c(-c2ccccc2)noc1C [Example 112]
Group label: FALSE
//
Compound: COc1nc(-c2cnc(C(=O)O)nc2)ccc1NC(=O)c1c(-c2ccccc2)noc1C [Example 60]
Group label: TRUE
//
Compound: COc1nc(-c2ccc(N)nn2)ccc1NC(=O)c1c(-c2ccccc2)noc1C [Example 127]
Group label: FALSE
//
Compound: CNc1ncc(-c2cnc(NC(=O)c3c(-c4ccccc4)noc3C)c(OC)n2)cn1 [Example 145]
Group label: TRUE
//
Compound: CNC(=O)c1ncc(-c2ccc(NC(=O)c3c(-c4ccccc4)noc3C)c(OC)n2)cn1 [Example 75]
Group label: TRUE

* * *

Biological target: human recombinant GABAAR containing α5β3γ2 subunits (benzodiazepine site) (Homo sapiens, UniProt P18507+P31644)
Construct: expressed in transfected cells; host or cells: mouse L(tk−) cells, dexamethasone-inducible vector pMSGneo
Test: In vitro radioligand binding assay (α5-GABAAR Ki)
Details: inhibition of [3H]Ro15-1788 binding, membranes of L(tk−) cells expressing human α5β3γ2; read-out: α5-GABAAR Ki
Mark True only when Ki stays strictly below 4 nM. Values equal to the cut-off are False.

Compound: COc1cc(-c2cnn(C)c2)ccc1NC(=O)c1c(-c2ccccc2)noc1C [Example 12]
Group label: False
//
Compound: COc1nc(-c2nccn3ccnc23)ccc1NC(=O)c1c(-c2ccccc2)noc1C [Example 38]
Group label: False
//
Compound: COc1cc(-c2cncnc2)cnc1NC(=O)c1c(-c2ccccc2)noc1C [Example 9]
Group label: True
//
Compound: COc1nc(-c2cnc(CN(C)C)nc2)ccc1NC(=O)c1c(-c2ccccc2)noc1C [Example 74]
Group label: True
//
Compound: CNCc1ncc(-c2cnc(NC(=O)c3c(-c4ccccc4)noc3C)c(OC)n2)cn1.Cl [Example 169, hydrochloride]
Group label: False
//
Compound: CNc1nc(-n2ccnc2)ccc1NC(=O)c1c(-c2ccccc2)noc1C [Example 177]
Group label: False
//
Compound: COc1nc(-n2cnc3c2CNCC3)ccc1NC(=O)c1c(-c2ccccc2)noc1C.Cl.Cl [Example 179, dihydrochloride]
Group label: True

* * *

Target: human α5β3γ2L GABAA receptors in HEK293 cells (Homo sapiens, UniProt P18507+P31644)
Construct: expressed in transfected cells
Experiment: In vitro electrophysiological recording assay (α5-GABAAR relative efficacy), SyncroPatch
Format: cell-based
Settings: Conc 0.1 μM; GABA EC10-20
Excerpt: Mouse L(tk^−) cells stably expressing human α1β3γ2, α2β3γ2, α3β3γ2, α5β3γ2 GABAARs generated by transfection of the individual subunits in the dexamethasone-inducible expression vector pMSGneo in mouse L(tk^−) cells (Hadingham et al., 1993, Mol. Pharmacol. 43:970-975 and 1993, Mol. Pharmacol. 44:1211-1218) were used for binding and functional assays. […]
Structures can show the parent of a compound that is named as a salt.
met means recorded α5-GABAAR Relative Efficacy (to DMCM), SyncroPatch is -0.7 or above; not met means it is below -0.7.

Compound: COc1nc(-c2cnc(N)cn2)ccc1NC(=O)c1c(-c2ccccc2)noc1C.Cl
Group label: not met
--
Compound: COc1nc(-c2cnoc2)ccc1NC(=O)c1c(-c2ccc(F)cc2)noc1C
Group label: not met
--
Compound: COc1nc(-n2ccnc2)ccc1NC(=O)c1c(-c2ccc(F)cc2)noc1C
Group label: not met
--
Compound: COc1nc(-c2cnc(N3CCC(O)CC3)nc2)ccc1NC(=O)c1c(-c2ccccc2)noc1C
Group label: not met
--
Compound: Cc1onc(-c2ccccc2)c1C(=O)Nc1ccc(-n2ccnc2)nc1OC(C)C
Group label: not met
--
Compound: COc1nc(-c2cnc(CN3CCOCC3)nc2)ccc1NC(=O)c1c(-c2ccccc2)noc1C
Group label: not met
--
Compound: COc1nc(-c2ccn3nc(N)nc3c2)ccc1NC(=O)c1c(C)nnn1-c1ccccc1
Group label: not met
--
Compound: Cc1onc(-c2ccc(F)cc2)c1C(=O)Nc1ccc(-c2cnc(N)nc2)nc1OCCO
Group label: met
--
Compound: COc1nc(-c2cnc(N)nc2)cnc1NC(=O)c1c(-c2ccccc2)noc1C
Group label: not met
--
Compound: COc1nc(-c2cnc(CN)nc2)ccc1NC(=O)c1c(-c2ccc(F)cc2)noc1C.Cl
Group label: not met
--
Compound: COc1nc(-c2cnoc2)ncc1NC(=O)c1c(-c2ccccc2)noc1C
Group label: not met
--
Compound: COc1nc(-c2cnc(CN)nc2)cnc1NC(=O)c1c(-c2ccccc2)noc1C.Cl
Group label: met
--
Compound: COc1nc(-n2cnc3c2CNCC3)ccc1NC(=O)c1c(-c2ccccc2)noc1C.Cl.Cl
Group label: met
--
Compound: COc1nc(-c2cnc(N)nc2)ncc1NC(=O)c1c(-c2ccccc2)noc1C
Group label: not met
--
Compound: COc1nc(-c2cnc(N)nc2)ccc1NC(=O)c1c(-c2ccc(F)cc2)noc1C
Group label: not met
--
Compound: COc1nc(-c2cncc(OC(F)F)c2)ccc1NC(=O)c1c(-c2ccccc2)noc1C
Group label: met
--
Compound: COc1nc(-c2cnc(CN)nc2)ccc1NC(=O)c1c(-c2ccccc2)noc1C.Cl
Group label: met
--
Compound: COc1nc(-c2cnc(O)c(C(F)(F)F)c2)ccc1NC(=O)c1c(-c2ccccc2)noc1C
Group label: met
--
Compound: COc1nc(-c2ccc(CN)nc2)ccc1NC(=O)c1c(-c2ccccc2)noc1C.Cl
Group label: not met
--
Compound: Cc1onc(-c2ccccc2)c1C(=O)Nc1ccc(-c2cnc(CN)nc2)nc1OC(C)C [Example 207, hydrochloride]
Group label: not met
--
Compound: COc1nc(-c2cnn(C)c2)ccc1NC(=O)c1c(-c2ccccc2)noc1C
Group label: met
--
Compound: COc1nc(-n2ccnc2)ccc1NC(=O)c1c(-c2ccccc2)noc1C
Group label: not met
--
Compound: COc1nc(-c2ccc(CN3CC4COCC(C4)C3)nc2)ccc1NC(=O)c1c(-c2ccccc2)noc1C
Group label: not met
--
Compound: COc1nc(-c2cnn3ncccc23)ccc1NC(=O)c1c(-c2ccccc2)noc1C
Group label: met
--
Compound: COc1nc(-c2ccc(N)nc2)ccc1NC(=O)c1c(-c2ccccc2)noc1C
Group label: met
--
Compound: COc1nc(-c2cnoc2)ccc1NC(=O)c1c(-c2ccccc2)noc1C
Group label: met
--
Compound: Cc1onc(-c2ccccc2)c1C(=O)Nc1ccc(-c2ccc(N)nc2)nc1OC(C)C
Group label: met
--
Compound: COc1nc(-c2ccc(N)nc2)ccc1NC(=O)c1c(-c2ccc(F)cc2)noc1C
Group label: not met
